Target: Human FAAH (Homo sapiens, UniProt O00519)
Construct: made in house; 10000 g pellet suspended in M-PER
Sequence (O00519 1-579): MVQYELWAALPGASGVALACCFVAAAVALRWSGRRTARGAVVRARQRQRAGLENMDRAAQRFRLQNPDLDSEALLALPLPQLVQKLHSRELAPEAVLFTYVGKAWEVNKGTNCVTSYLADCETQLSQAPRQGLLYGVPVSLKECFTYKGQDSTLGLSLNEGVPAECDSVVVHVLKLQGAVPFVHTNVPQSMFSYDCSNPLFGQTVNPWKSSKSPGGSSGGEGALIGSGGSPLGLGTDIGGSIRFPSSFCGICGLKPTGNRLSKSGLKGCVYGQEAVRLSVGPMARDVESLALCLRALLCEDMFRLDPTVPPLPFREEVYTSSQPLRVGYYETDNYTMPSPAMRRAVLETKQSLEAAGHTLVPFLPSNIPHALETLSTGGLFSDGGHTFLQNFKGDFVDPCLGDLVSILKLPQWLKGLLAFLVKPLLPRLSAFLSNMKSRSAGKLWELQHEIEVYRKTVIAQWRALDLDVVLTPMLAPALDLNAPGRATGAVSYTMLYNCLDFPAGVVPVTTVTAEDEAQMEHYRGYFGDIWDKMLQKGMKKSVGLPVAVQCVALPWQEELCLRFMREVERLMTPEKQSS
Assay: Measurement of FAAH inhibitory activity (enzyme fraction from CHO-K1/human FAAH, substrate anandamide [ethanolamine 1-3H])
Assay type: biochemical
Conditions: 1 μM test compound; 25 nM anandamide [ethanolamine 1-3H]; 60 ng enzyme fraction; 37° C. for 30 minutes; pH 9.0; read-out: Human FAAH Inhibition Rate at 1 μM (%)
Description: Measurement of FAAH Inhibitory Activity (1) Preparation of Enzyme Fraction The FAAH gene was cloned by PCR. That is, a human brain library was used as a cDNA library, 5′-[…]-3′ [SEQ ID NO:1] and 5′-[…]-3′ [SEQ ID NO:2] were used as a primer set, and KOD DNA polymerase (Toyobo Co., Ltd.) was used as a DNA polymerase. One cycle of the reaction comprises 95° C. for 30 sec, 55° C. for 30 sec and 72° C. for 2 min, and 45 cycles of the reaction was carried out to obtain an amplified fragment. […]
Experimental readout: inhibition at 1 µM (%)

>  <Molecular string>
Cc1noc(NC(=O)N2CCN(c3cccc(-c4ccccc4)c3)CC2)c1C

>  <Subject of test>
Human FAAH (Homo sapiens, UniProt O00519)

>  <inhibition at 1 µM [%]>
104

$$$$
>  <Molecular string>
CC(=O)Nc1ccc(NC(=O)N2CCN(c3cccc(-c4ccccc4)c3)CC2)cn1

>  <Subject of test>
Human FAAH (Homo sapiens, UniProt O00519)

>  <inhibition at 1 µM [%]>
101

$$$$
>  <Molecular string>
Cc1noc(NC(=O)N2CCN(c3cc(-c4ccccc4)ccn3)CC2)c1C

>  <Subject of test>
Human FAAH (Homo sapiens, UniProt O00519)

>  <inhibition at 1 µM [%]>
94

$$$$
>  <Molecular string>
O=C(Nc1cccnc1)N1CCN(c2ccc(-c3ccccc3)cc2)CC1

>  <Subject of test>
Human FAAH (Homo sapiens, UniProt O00519)

>  <inhibition at 1 µM [%]>
101

$$$$
>  <Molecular string>
O=C(Nc1cccnc1)N1CCN(c2cc(-c3ccccc3)ccn2)CC1

>  <Subject of test>
Human FAAH (Homo sapiens, UniProt O00519)

>  <inhibition at 1 µM [%]>
74

$$$$
>  <Molecular string>
CC(=O)Nc1ccc(NC(=O)N2CCN(c3cccc(-c4ccsc4)c3)CC2)cc1

>  <Subject of test>
Human FAAH (Homo sapiens, UniProt O00519)

>  <inhibition at 1 µM [%]>
108

$$$$
>  <Molecular string>
Cc1noc(NC(=O)N2CCN(c3cccc(-c4ccsc4)c3)CC2)c1C

>  <Subject of test>
Human FAAH (Homo sapiens, UniProt O00519)

>  <inhibition at 1 µM [%]>
100

$$$$
>  <Molecular string>
Cc1noc(NC(=O)N2CCN(c3ccc(-c4ccccc4)cc3)CC2)c1C

>  <Subject of test>
Human FAAH (Homo sapiens, UniProt O00519)

>  <inhibition at 1 µM [%]>
102

$$$$
>  <Molecular string>
O=C(Nc1cccnc1)N1CCN(c2cccc(-c3ccccc3)c2)CC1

>  <Subject of test>
Human FAAH (Homo sapiens, UniProt O00519)

>  <inhibition at 1 µM [%]>
103

$$$$
>  <Molecular string>
O=C(Nc1cccnn1)N1CCN(c2cccc(-c3ccccc3)c2)CC1

>  <Subject of test>
Human FAAH (Homo sapiens, UniProt O00519)

>  <inhibition at 1 µM [%]>
105

$$$$

Measured values drawn from patent US7812025B2 for this set.
